Consider the following binders and their measured pEC50 readings.
TARGET UNDER TEST: T1, Human CD138-Fc protein (human, UniProt P18827 23-254)
T1 construct: also called hCD138-Fc
T1 sequence: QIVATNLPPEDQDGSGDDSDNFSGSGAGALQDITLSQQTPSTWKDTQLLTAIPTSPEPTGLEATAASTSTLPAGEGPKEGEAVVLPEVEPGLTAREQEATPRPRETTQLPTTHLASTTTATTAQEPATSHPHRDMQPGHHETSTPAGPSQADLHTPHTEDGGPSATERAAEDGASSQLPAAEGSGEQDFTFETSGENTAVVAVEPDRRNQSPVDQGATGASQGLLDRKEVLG
RUN DESCRIPTION: ELISA, plate-coated human CD138-Fc
pEC50: −log10 of the molar value.

BINDER: F6 ckf-rep (antibody, V domains shown, Humanized F12P16F6 expressed as whole antibody with human constant regions (kappa light chain)) VH: QVQLVQSGAEVVKPGASVKLSCKASGYTFTSYYLYWVKKAPGQGLDWIGEIYPRSGGTNINEKFLSRVTLTADTSTSTAYLELSSLTSEDTAVYYCTRSLLYWGQGTTLTVSS VL: DVVMTQSPLSLSVTLGQPASISCKSSQSLLASDGKTYLNWLQQRPGQSPRRLIYLVSKLDSGVPNRFSGSGSGTDFTLQISRVEAEDVGLYYCWQGAHFPFTFGSGTKLEIKR
pEC50: 9.27

BINDER: F6 cka-rep (antibody, V domains shown, Humanized F12P16F6 expressed as whole antibody with human constant regions (kappa light chain)) VH: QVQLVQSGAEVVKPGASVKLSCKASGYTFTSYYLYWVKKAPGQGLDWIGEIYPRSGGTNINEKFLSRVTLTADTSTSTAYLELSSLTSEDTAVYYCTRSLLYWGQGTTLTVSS VL: DVVMTQTPLSLSVTPGQPASISCKSSQSLLASDGKTYLNWLLQRPGQSPKRLIYLVSKLDSGVPNRFSGSGSGTDFTLQISRVEAEDVGLYYCMQGAHFPFTFGGGTKVEIKR
pEC50: 9.07

BINDER: F6 f1ks-rep (antibody, V domains shown, Humanized F12P16F6 expressed as whole antibody with human constant regions (kappa light chain)) VH: QVQLQQSGAEVVKPGASVKLSCKASGYTFTSYYLYWVKKAPGQGLDWIGEIYPRSGGTNINEKFLSRVTLTADTSTSTAYMDLSSLTSEDTAVYYCTRSLLYWGQGTTLTVSS VL: DVVMTQTPLSLSVTPGQPASISCKSSQSLLASDGKTYLNWLLQRPGQSPKRLIYLVSKLDSGVPNRFSGSGSGTDFTLQISRVEAEDVGLYYCWQGAHFPFTFGSGTKLEIKR
pEC50: 9.12

BINDER: F6 f2kf-rep (antibody, V domains shown, Humanized F12P16F6 expressed as whole antibody with human constant regions (kappa light chain)) VH: QVQLQQSGAEVVKPGASVKLSCKASGYTFTSYYLYWVKKAPGQGLDWIGEIYPRSGGTNINEKFLSRVTITADESTSTVYMQLSSLTSEDSAVYYCTRSLLYWGQGTTLTVSS VL: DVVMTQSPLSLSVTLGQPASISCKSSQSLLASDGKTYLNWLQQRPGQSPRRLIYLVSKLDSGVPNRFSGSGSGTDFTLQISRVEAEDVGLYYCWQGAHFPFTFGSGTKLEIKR
pEC50: 9.39

Values from patent US20220249679A1
